System: COLO 205
procedureDetails: NCI tumour cell line growth inhibition, 48 h
Calls of active or inactive are those of the source. No stated cut-off is given here; in the data, active = GI50 up to about 1.1 µM and inactive = higher.
resultType: GI50

# compoundStructure, assayedTarget, resultType, endpointValue
measured = [
    ("N#C/C(=C/c1ccc[nH]1)P(=O)(O)O", "COLO 205", "GI50", "> 100 µM (inactive)"),
    ("CCOC(=O)c1cc2c3ccn(Cc4ccccc4)c3c3c(C)noc3c2[nH]1", "COLO 205", "GI50", "> 100 µM (inactive)"),
    ("Cn1cc(S(=O)(=O)NC(=O)Nc2ccc(Cl)cc2)c2ccccc21", "COLO 205", "GI50", "30.3 µM (inactive)"),
    ("CSc1c(C(=O)Nc2ccccc2)c(N)nn1-c1ccccc1", "COLO 205", "GI50", "> 100 µM (inactive)"),
    ("Nc1ccccc1NC(=O)c1ccc(CNC(=O)OCc2cccnc2)cc1", "COLO 205", "GI50", "1.17 µM (inactive)"),
    ("Oc1cc(Cl)cc2cccnc12", "COLO 205", "GI50", "6.65 µM (inactive)"),
]

The reported measurements were obtained from ChEMBL document CHEMBL1201862.
